Consider the following compounds; for each one, report its EC50.
test system: Brazilian ZIKV strain (ZIKV-BR) in cervical cells; experiment: Plaque-forming reduction assay, supernatants of infected cervical cells; type: cell-based, Zika virus; settings: Zika virus, plaque-forming reduction, MOI 10, 48 h
One number for each entry, in µM.

O=S(=O)(NCCCCNc1ccnc2cc(Cl)ccc12)c1ccc(F)cc1 [C-Sd7]: 3.6
O=S(=O)(NCCCCNc1ccnc2cc(Cl)ccc12)c1ccc(Cl)cc1 [C-Sd5]: 3.2
O=S(=O)(NCCCNc1ccnc2cc(Cl)ccc12)c1ccc(F)cc1 [C-Sd3]: 3.7

Please look at the items below and tell me EC50 for each one, in order.
1. OC(c1cc(C(F)(F)F)nc2c(C(F)(F)F)cccc12)C1CCCCN1 (centres unmarked) [Mefloquine, reference compound]
2. O=S(=O)(NCCCCNc1ccnc2cc(Cl)ccc12)c1ccccc1 [C-Sd4]
3. O=S(=O)(NCCCNc1ccnc2cc(Cl)ccc12)c1ccc(Br)cc1 [C-Sd2]
4. O=S(=O)(NCCCCNc1ccnc2cc(Cl)ccc12)c1ccc(Br)cc1 [C-Sd6]
5. Cc1ccc(S(=O)(=O)NCCCNc2ccnc3cc(Cl)ccc23)cc1 [C-Sd1]

[1.6, 5, 3.3, 3.3, 3.6]

====

assay: Cytotoxicity assay (PrestoBlue) in mock-infected cervical cells; type: cell-based; conditions: human, C33-A cervical epithelial cells (mock-infected); mock-infected cervical cells, 48 h, PrestoBlue; read-out: CC50 (μM)/48 h Cervical
Parameter Measured: CC50 at 48 h

Here's what some known entries look like.
O=S(=O)(NCCCCNc1ccnc2cc(Cl)ccc12)c1ccc(F)cc1: > 200 µM
O=S(=O)(NCCCCNc1ccnc2cc(Cl)ccc12)c1ccc(Br)cc1: > 200 µM
Cc1ccc(S(=O)(=O)NCCCNc2ccnc3cc(Cl)ccc23)cc1: 130 µM
O=S(=O)(NCCCNc1ccnc2cc(Cl)ccc12)c1ccc(F)cc1: > 200 µM
O=S(=O)(NCCCCNc1ccnc2cc(Cl)ccc12)c1ccc(Cl)cc1: > 200 µM
O=S(=O)(NCCCCNc1ccnc2cc(Cl)ccc12)c1ccccc1: > 200 µM

Fill blank: measured CC50 at 48 h of the compound O=S(=O)(NCCCNc1ccnc2cc(Cl)ccc12)c1ccc(Br)cc1 is ____.
112 µM

====

assay: Cytotoxicity assay (PrestoBlue) in mock-infected cervical cells; type: cell-based; conditions: human
Parameter Measured: CC50 at 48 h (µM)
Numbers only, in µM.

Fill blank: measured CC50 at 48 h of the compound OC(c1cc(C(F)(F)F)nc2c(C(F)(F)F)cccc12)C1CCCCN1 (stereo not shown) [Mefloquine, reference compound] is ____.
48.8

====

test: Cytotoxicity assay (PrestoBlue) in mock-infected Vero cells; type: cell-based; conditions: African green monkey, Vero cells (kidney)
Consider the following compounds; for each one, report its CC50 at 48 h.
Answers are plain numbers, in µM.

O=S(=O)(NCCCCNc1ccnc2cc(Cl)ccc12)c1ccc(F)cc1: 74.8

Please look at the items below and tell me CC50 at 48 h for each one, in order.
1. O=S(=O)(NCCCCNc1ccnc2cc(Cl)ccc12)c1ccccc1
2. O=S(=O)(NCCCCNc1ccnc2cc(Cl)ccc12)c1ccc(Cl)cc1
3. O=S(=O)(NCCCNc1ccnc2cc(Cl)ccc12)c1ccc(F)cc1

[143, 52.2, 141]

====

tested on: Brazilian ZIKV strain (ZIKV-BR) in cervical cells; assay: Viral genome detection by RT-qPCR in supernatants of infected cervical cells; type: cell-based, Zika virus; settings: supernatant of cervical cells, 12 µM, compared to control
Consider the following molecules; for each one, report its reduction of viral load.

Cc1ccc(S(=O)(=O)NCCCNc2ccnc3cc(Cl)ccc23)cc1 [C-Sd1]: 2 logs

Please look at the items below and tell me reduction of viral load for each one, in order.
1. O=S(=O)(NCCCCNc1ccnc2cc(Cl)ccc12)c1ccc(Cl)cc1 [C-Sd5]
2. O=S(=O)(NCCCCNc1ccnc2cc(Cl)ccc12)c1ccc(Br)cc1 [C-Sd6]
3. O=S(=O)(NCCCCNc1ccnc2cc(Cl)ccc12)c1ccc(F)cc1 [C-Sd7]
4. O=S(=O)(NCCCNc1ccnc2cc(Cl)ccc12)c1ccc(F)cc1 [C-Sd3]
5. O=S(=O)(NCCCNc1ccnc2cc(Cl)ccc12)c1ccc(Br)cc1 [C-Sd2]
6. O=S(=O)(NCCCCNc1ccnc2cc(Cl)ccc12)c1ccccc1 [C-Sd4]

1. 3 logs
2. 3 logs
3. 2 logs
4. 2 logs
5. 2 logs
6. 2 logs

====

test: Cytotoxicity assay (PrestoBlue) in mock-infected Vero cells; type: cell-based; details: African green monkey, Vero cells (kidney)
Consider the following compounds; for each one, report its CC50 at 48 h.
Give bare numbers, in µM.

OC(c1cc(C(F)(F)F)nc2c(C(F)(F)F)cccc12)C1CCCCN1 (stereo not shown) [Mefloquine, reference compound]: 26.7
O=S(=O)(NCCCCNc1ccnc2cc(Cl)ccc12)c1ccc(Br)cc1: 43.2
O=S(=O)(NCCCNc1ccnc2cc(Cl)ccc12)c1ccc(Br)cc1: 56.7

Fill blank: measured CC50 at 48 h of the compound Cc1ccc(S(=O)(=O)NCCCNc2ccnc3cc(Cl)ccc23)cc1 is ____.
97
